# assayed system: pooled human IgG (human IgG1, 2, 3 and 4)
// Enzyme Activity Endpoint Assay: Fc lookup, one value per entry
Reply numerically in ng/µL, unit not repeated.

PRT-263 (protein) MVTSVWTKGVTPPTNFTYGEDVLHAPYVANQGWYDITKLFNGKDNLLCGAATAGNMLHWWFDQNKEQIENYLKKHPEKQKINFNGEQLFDVKEAIDTKDSQLDSKLFEYFLEKAFPNLSTKHLGVFPDHVIDMFINGYRLSLLNHGPTPVKRGSKDKRGGIFDAVFTRGVQSKLLTNRHDFKEKTLKEISDLIKQELTEGKALGISHTYANGRINHVINLWGADFDAEGNLEAIAVTDSDTNASIGMKKYFVGVNSSGKVAISAKEIEEDNIGAQVLGLFTLSTGQDIWNQTN = 27

Now, please, on to the next protein.
-- ask For the protein shown here, PRT-408 (protein) MVTSVWTKGVTPPADFTQGEDVFHAPYVANQGWYDITKTFNGKDDLLCGAATAGNMLHWWFDQNKEYIEAYLKKHPEKQKIMFGDQELLDVRKAINTKGSQKNSELFNYFRDKAFPNLSARRLGVFPDLVLDMFINGYYLNVTKTQTTDVNRTYQEKDKRGGIFDAVFTRGDQSKLLTSRHDFKEKGLKEISDLIKQELTEGKALGLSHTYANVRINHVINLWGADFDSDGNLKAIYVTDSDSNASIGMKKYFVGVNSAGKVAISAKEIKEDNIGAQVLGLFTLSTGQDIWNQTN , give the reported Enzyme Activity Endpoint Assay: Fc.
-- reply 334
